system.tested: T1, human CLDN6, endogenously expressed on cancer cell lines (human, UniProt P56747 1-220)
T1 construct: also called Endogenous CLDN6+; CLDN6 on ARK2, OVCA429, UMUC4 cells
T1 sequence: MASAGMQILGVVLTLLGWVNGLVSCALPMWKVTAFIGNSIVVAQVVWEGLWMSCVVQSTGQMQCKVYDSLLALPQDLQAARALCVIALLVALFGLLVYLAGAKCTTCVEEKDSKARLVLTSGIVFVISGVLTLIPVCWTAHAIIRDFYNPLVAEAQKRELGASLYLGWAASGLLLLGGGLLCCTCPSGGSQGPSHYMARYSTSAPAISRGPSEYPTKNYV
procedure.details: FACS, ARK2 cells, 0.3 ug Ab
Below is a list of entries, each paired with its recorded FACS signal value.
endpoint.label: FACS signal

INSERT INTO measurements (binder, recorded_measurement) VALUES
  ('AB4-10 (antibody, V domains shown, Humanized; full-length IgG; see note of AB4-8; also called humanized AB 4-10) VH: QVQLVQSGAEVKKPGASVKMSCKASGYTFTSYTMHWIRQAPGQGQEWIGYINPSSTYTHYIKKFKDRATLTADTSTSTAYMELSSLRSEDTAVYYCSRGELGGFAYWGQGTLVTVSS VL: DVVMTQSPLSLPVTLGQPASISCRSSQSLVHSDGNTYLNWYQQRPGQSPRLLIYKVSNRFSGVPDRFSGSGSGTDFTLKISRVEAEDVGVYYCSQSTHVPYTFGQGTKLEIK', 7210),
  ('AB4-8 (antibody, V domains shown, Humanized; full-length IgG; also called humanized AB 4-8) VH: QVQLVQSGAEVKKPGASVKVSCKASGYTFTSYTMHWVRQAPGQGLEWMGYINPSSTYTHYIKKFKDRVTMTADTSTSTVYMELSSLRSEDTAVYYCSRGELGGFAYWGQGTLVTVSS VL: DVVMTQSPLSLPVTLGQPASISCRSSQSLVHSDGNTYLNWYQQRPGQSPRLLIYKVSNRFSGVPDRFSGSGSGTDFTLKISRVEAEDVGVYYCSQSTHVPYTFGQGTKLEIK', 3120);
